target: T1, ヒトPTHrP(1-34) (human); test: ELISA on plate-coated human PTHrP(1-34)
T1 construct: Synthetic peptide, bought (Peninsula; ペプチド研究所); Coated on the plate in the ELISA; also called human parathyroid hormone related peptide (1-34)

binder	binding result
ヒト型化#23-57-137-1抗体 (H鎖バージョン"a"、L鎖バージョン"t") (antibody, IgG1, V domains shown, Human Cγ1 (IgG1) and human lambda C region; Expressed in COS-7 cells; also called hMBC1HcDNA/pCOS1 + hMBC1Ltλ/pCOS1) VH: QVQLVESGGGVVQPGRSLRLSCAASGFTFSSYGMSWVRQAPGKGLEWVATISSGGSYTYYPDSVKGRFTISRDNSKNTLYLQMNSLRAEDTAVYYCARQTTMTYFAYWGQGTLVTVSS VL: QLVLTQSPSASASLGASVKLTCTLSSQHSTYTIEWYQQQPEKGPRYVMDLKQDGSHSTGDGIPDRFSGSSSGAERYLTISSLQSEDEADYICGVGDTIKEQFVYVFGGGTKLTVLG	binds
ヒト型化#23-57-137-1抗体 (H鎖バージョン"a"、L鎖バージョン"q") (antibody, IgG1, V domains shown, Human Cγ1 (IgG1) and human lambda C region; Expressed in COS-7 cells for the ELISA; also made in CHO cells; also called hMBC(q); hMBC1HcDNA + hMBC1Lqλ) VH: QVQLVESGGGVVQPGRSLRLSCAASGFTFSSYGMSWVRQAPGKGLEWVATISSGGSYTYYPDSVKGRFTISRDNSKNTLYLQMNSLRAEDTAVYYCARQTTMTYFAYWGQGTLVTVSS VL: QLVLTQSPSASASLGASVKLTCTLSSQHSTYTIEWYQQQPEKGPKYLMDLKQDGSHSTGDGIPDRFSGSSSGAERYLTISSLQSEDEADYICGVGDTIKEQFVYVFGGGTKLTVLG	binds
